Test system: DMS-114
Experiment: NCI tumour cell line growth inhibition, 48 h
Calls of active or inactive are those of the source. Cut-off read from the data, not from the text of the source: active = GI50 up to about 1.1 µM and inactive = higher.
Items are presented alongside their recorded GI50.
endpoint-name: GI50

{"molecule": "Cc1ccc(C2(O)CC(c3ccc([N+](=O)[O-])o3)=NN2C(=O)COc2ccc(Cl)cc2)cc1 (stereo not given)", "result": "9.86 µM (inactive)"}
{"molecule": "O=C1C2C(C(=O)N1O)N(Cc1ccccc1)C(=O)N2Cc1ccccc1 (stereo not given)", "result": "> 100 µM (inactive)"}
{"molecule": "CCOC(=O)NC(=O)c1cn(CCCOC(=O)NCCCCCCNC(=O)OCCCn2cc(C(=O)NC(=O)OCC)c(=O)[nH]c2=O)c(=O)[nH]c1=O", "result": "15.3 µM (inactive)"}
{"molecule": "COc1cc(C=O)c(-c2cc3c(cc2C2(C)OCCS2)OCO3)c(OC)c1OC (stereo not given)", "result": "17.5 µM (inactive)"}
{"molecule": "O=C1OCc2cccc3c2-c2c1cccc2C(=O)OC3", "result": "> 100 µM (inactive)"}
{"molecule": "COC(=O)C(CBr)CBr", "result": "2.06 µM (inactive)"}
{"molecule": "COC1(C)CNCC(C)(C)NC(=O)C(C)(OC)CNCC(C)(C)NC1=O (stereo not given)", "result": "> 100 µM (inactive)"}
{"molecule": "O=c1oc2cc(O)ccc2c2oc3cc(O)ccc3c12", "result": "9.89 µM (inactive)"}
{"molecule": "O=C(Nc1nc2ccccc2n1Cc1ccccc1)NC12CC3CC(CC(C3)C1)C2", "result": "57.3 µM (inactive)"}
{"molecule": "N#C/C(=C/c1cccc2ccccc12)C(=O)c1ccccc1", "result": "51.6 µM (inactive)"}
{"molecule": "C1CN1c1nc(N2CC2)nc(N2CC2)n1", "result": "2.99 µM (inactive)"}
{"molecule": "CCc1cccc(C)c1NC(=O)C(=O)Cc1nc2ccccc2o1", "result": "> 100 µM (inactive)"}
{"molecule": "O=C1c2ccccc2C(=O)N1C/C=N/NS(=O)(=O)c1cccc([N+](=O)[O-])c1", "result": "> 100 µM (inactive)"}
{"molecule": "C=C1C(=O)OC2/C=C(/C)C3CC(O)C(C)(CC(OC(=O)/C(C)=C/C)C12)O3 (stereo not given)", "result": "7.01 µM (inactive)"}
{"molecule": "CC1(C)CC(=O)C2=C(C1)S/C(=C1/SC3=C(S1)C(=O)CC(C)(C)C3)S2", "result": "> 251 µM (inactive)"}
{"molecule": "COC(=O)c1cccc2cccc(C(=O)Nc3ccc(C)cc3C)c12", "result": "> 100 µM (inactive)"}
{"molecule": "O=C(/C=C/c1cc(Cl)cc(Cl)c1O)c1cccc(O)c1", "result": "35.9 µM (inactive)"}
{"molecule": "C=CC1(NC(=O)c2ccccc2)CCC(C(C)(C)C)CC1 (stereo not given)", "result": "27.7 µM (inactive)"}
{"molecule": "c1ccc2cc3c(cc2c1)OP1(Oc2cccc4cccnc24)(O3)Oc2cc3ccccc3cc2O1", "result": "1.79 µM (inactive)"}
{"molecule": "O=C(/C=C1/Nc2ccc([N+](=O)[O-])cc2NC1O)c1cccc([N+](=O)[O-])c1 (stereo not given)", "result": "32.1 µM (inactive)"}
{"molecule": "Cn1cc(NC(=O)c2cc(NC(=O)CCCCCC(=O)Nc3cc(C(=O)Nc4cc(C(=O)NCCC(=N)N)n(C)c4)n(C)c3)cn2C)cc1C(=O)NCCC(=N)N", "result": "33 µM (inactive)"}
{"molecule": "Cn1c(=O)nc2n(-c3cccc(Br)c3)c3ccccc3nc-2c1=O", "result": "2.04 µM (inactive)"}
{"molecule": "N#CCCCCCOCCOCCOCCOCCOCCCCCC#N", "result": "> 100 µM (inactive)"}
{"molecule": "CCCCCCCCCCCC(=O)OC[C@@H](C[As](=O)(O)O)OC(=O)CCCCCCCCCCC", "result": "2.12 µM (inactive)"}
{"molecule": "CC(=O)Nc1ccccc1Sc1ccccc1", "result": "> 100 µM (inactive)"}
{"molecule": "[N-]=[N+]=Nc1ncnc2c1sc(=S)n2-c1ccccc1", "result": "> 100 µM (inactive)"}
{"molecule": "C/C(=C\\C(=O)Nc1ccc2[nH]nnc2c1)Nc1ccc2[nH]nnc2c1", "result": "> 100 µM (inactive)"}
{"molecule": "C#CCC(N)(CO)C(=O)O (stereo not given)", "result": "> 100 µM (inactive)"}
{"molecule": "CCCCCCC(O)C/C=C/CCCCCC/C(C(=O)OC)=C(/O)C(=O)OCC (stereo not given)", "result": "> 100 µM (inactive)"}
{"molecule": "CN(C)c1ccc2nc3c(ccc4ccccc43)[o+]c2c1", "result": "19.3 µM (inactive)"}

* * *

Test system: OVCAR-4
Assay: NCI tumour cell line growth inhibition, 48 h
Calls of active or inactive are those of the source. Cut-off read from the data, not from the text of the source: active = GI50 up to about 1.1 µM and inactive = higher.

{"compound": "ClCCN1CCC2(CC1)SSC1(CCN(CCCl)CC1)S2", "GI50": "35.2 µM (inactive)"}
{"compound": "OCC1NC(CO)C(O)C1O (configuration not stated)", "GI50": "> 100 µM (inactive)"}
{"compound": "CC(=O)OC/C=C/Cn1nc(Br)c(=O)[nH]c1=O", "GI50": "> 100 µM (inactive)"}
{"compound": "Cc1ccc(S(=O)(=O)NC(=O)NCC(N)=O)cc1", "GI50": "> 100 µM (inactive)"}
{"compound": "Cc1ccc(OP2(=O)Oc3ccc4ccccc4c3CN2c2ccc(Cl)cc2)cc1C (configuration not stated)", "GI50": "> 100 µM (inactive)"}
{"compound": "O=C(c1ccc(Cl)cc1)C1OC12C(=O)Nc1ccccc12 (configuration not stated)", "GI50": "19.1 µM (inactive)"}
{"compound": "COC(=O)C(CBr)CBr", "GI50": "4.03 µM (inactive)"}

* * *

Test system: DU-145
Experiment: NCI tumour cell line growth inhibition, 48 h
Activity calls are given as the source filed them. No stated cut-off is given here; in the data, active = GI50 up to about 1.1 µM and inactive = higher. Where a SMILES comes first, the peptide text is derived from it. The star is where a group is joined. Boc = CC(C)(C)OC(=O)*; OSu = O=C1CCC(=O)N1O*

{"compound": "CC(C)(C)c1cc(C2COC(=O)COCCOCC(=O)OCCOCCO2)cc(C(C)(C)C)c1O (centres undefined)", "target-under-test": "DU-145", "GI50": "19.5 µM (inactive)"}
{"compound": "N#CCCC(C=O)(CCC#N)CCC#N", "target-under-test": "DU-145", "GI50": "> 100 µM (inactive)"}
{"compound": "COc1ccccc1-c1cc(=O)c2ccccc2n1C1CC1", "target-under-test": "DU-145", "GI50": "3.5 µM (inactive)"}
{"compound": "CN(C)Cc1cc(/N=N/c2ccc(Cl)cc2)cc(CN(C)C)c1O", "target-under-test": "DU-145", "GI50": "16.9 µM (inactive)"}
{"compound": "CNc1nc(OC)c2c(n1)n(C)c[n+]2C", "target-under-test": "DU-145", "GI50": "> 100 µM (inactive)"}
{"compound": "CC(C)=CCCC1(C)C2COC(=O)C21 (centres undefined)", "target-under-test": "DU-145", "GI50": "> 100 µM (inactive)"}
{"compound": "O=C1NC(c2cccc(OCc3ccccc3)c2)Nc2ccccc21 (centres undefined)", "target-under-test": "DU-145", "GI50": "0.172 µM (active)"}
{"compound": "CC(NC(=O)C(NC(=O)OC(C)(C)C)C(C)C)C(=O)NCC(=O)ON1C(=O)CCC1=O (stereo not drawn) (Boc-Val-Ala-Gly-OSu; configuration not given here)", "target-under-test": "DU-145", "GI50": "> 100 µM (inactive)"}
{"compound": "COc1cc(S(=O)(=O)Nc2ccc(-c3csc(N4C(=O)C(C)SC4c4ccccc4)n3)cc2)ccc1Cl (centres undefined)", "target-under-test": "DU-145", "GI50": "40.2 µM (inactive)"}
{"compound": "CCOC(=O)c1ccc(Nc2cnc3cc(C(F)(F)F)ccc3n2)cc1", "target-under-test": "DU-145", "GI50": "> 100 µM (inactive)"}
{"compound": "O=c1c2cc3c(cc2[nH]c2ncccc12)OCO3", "target-under-test": "DU-145", "GI50": "> 10 µM (inactive)"}
{"compound": "C=CCOC(=O)C1C2OC3(C(C(=O)OC)=C2C(=O)OC)c2ccccc2CCC13 (centres undefined)", "target-under-test": "DU-145", "GI50": "> 10 µM (inactive)"}
{"compound": "COC(=O)/C=C1/OC(c2ccc(C)cc2)=C(Cl)C1=O", "target-under-test": "DU-145", "GI50": "17.7 µM (inactive)"}
{"compound": "COc1ccc(CNNC(=O)c2cc[n+]([BH2-]C#N)cc2)cc1OC", "target-under-test": "DU-145", "GI50": "> 100 µM (inactive)"}
{"compound": "CCOC(=O)[C@@H]1ON2O[C@H](OC3CCCC3(c3ccccc3)c3ccccc3)C[C@H]3OC(=O)[C@@H]1C32 (some centres undefined)", "target-under-test": "DU-145", "GI50": "25.5 µM (inactive)"}
{"compound": "Clc1ccc(C2=NCON=C2c2ccc(Cl)cc2)cc1", "target-under-test": "DU-145", "GI50": "30.5 µM (inactive)"}
{"compound": "CC(/C=C/C(O)=C1/C(=O)CNC1=O)=C\\[C@@H](C)[C@H]1O[C@@]2(C)O[C@H](C(=O)[C@@H]3O[C@@]32C)[C@@H]1C", "target-under-test": "DU-145", "GI50": "18.9 µM (inactive)"}
{"compound": "COc1ccc(/C=C\\c2cc(OC)c(OC)c(OC)c2)cc1OC(=O)CCC(=O)O", "target-under-test": "DU-145", "GI50": "< 0.0001 µM (active)"}
{"compound": "O=[N+]([O-])c1ccc2c(c1)C1=NN(c3ccccc3)C(c3ccccc3Br)C1CCC2 (centres undefined)", "target-under-test": "DU-145", "GI50": "16.3 µM (inactive)"}
{"compound": "C[N+]1=C2[B-](C(C)(C)C)=[N+](C(C)(C)C)[B-]2(C(C)(C)C)[N+](C)=C2[B-](C(C)(C)C)=[N+](C(C)(C)C)[B-]21C(C)(C)C (centres undefined)", "target-under-test": "DU-145", "GI50": "> 100 µM (inactive)"}
{"compound": "O=C1N=C(SC2OC(CO)C(O)C(O)C2O)S/C1=C\\c1ccccc1 (centres undefined)", "target-under-test": "DU-145", "GI50": "> 100 µM (inactive)"}
{"compound": "[N-]=[N+]=C1C(=O)c2ccccc2-c2ccccc21", "target-under-test": "DU-145", "GI50": "30.9 µM (inactive)"}
{"compound": "CCCCCCCCCCCC(=O)OC[C@@H](C[As](=O)(O)O)OC(=O)CCCCCCCCCCC", "target-under-test": "DU-145", "GI50": "18.1 µM (inactive)"}
{"compound": "O=[N+]([O-])/C(Cl)=C(\\NCCO)C(Cl)=C(Cl)Cl", "target-under-test": "DU-145", "GI50": "> 100 µM (inactive)"}
{"compound": "COC(=O)C(C)(NC(=O)C(CC(=O)OC(C)(C)C)NC(=O)OC(C)(C)C)c1ccccc1 (centres undefined)", "target-under-test": "DU-145", "GI50": "> 100 µM (inactive)"}
{"compound": "ClCCN1CCOC1=C1C=CC=C1", "target-under-test": "DU-145", "GI50": "> 100 µM (inactive)"}
{"compound": "COc1ccccc1-c1cc(O)c2c(C)ccnc2n1", "target-under-test": "DU-145", "GI50": "41.2 µM (inactive)"}
{"compound": "NC(=O)N/N=C(\\Cc1cc(=O)oc2cc(O)ccc12)C(=O)Nc1ccccc1C(N)=O", "target-under-test": "DU-145", "GI50": "> 100 µM (inactive)"}
{"compound": "NC(=O)c1ccc2c(c1)S(=O)(=O)c1ccccc1C2=O", "target-under-test": "DU-145", "GI50": "> 100 µM (inactive)"}
{"compound": "Nc1ccc2nc3n(c(=O)c2c1)CCCCC3", "target-under-test": "DU-145", "GI50": "> 100 µM (inactive)"}
{"compound": "Cc1ccsc1/C=N/Nc1ncccn1", "target-under-test": "DU-145", "GI50": "> 100 µM (inactive)"}
{"compound": "CCC(=O)c1cc(C(=O)C(=S)SC)cc(C(=O)C(=S)SC)c1", "target-under-test": "DU-145", "GI50": "> 100 µM (inactive)"}
{"compound": "CC(=N/NC(N)=S)/C(C)=N/NC(N)=S", "target-under-test": "DU-145", "GI50": "> 100 µM (inactive)"}
{"compound": "C=C(C)[C@@H]1CC[C@]2(C)CC[C@]3(C)[C@H](CC[C@@H]4[C@@]5(C)CC[C@H](OC(=O)c6ccccc6)C(C)(C)[C@@H]5CC[C@]43C)[C@@H]12", "target-under-test": "DU-145", "GI50": "> 100 µM (inactive)"}
{"compound": "CO/N=C(\\C)c1ccc(Nc2nc3ccccc3c3occc23)cc1", "target-under-test": "DU-145", "GI50": "15.5 µM (inactive)"}
{"compound": "O=C(Oc1cccc(Cl)c1)c1cc2cc(CCl)ccc2oc1=O", "target-under-test": "DU-145", "GI50": "22.8 µM (inactive)"}
{"compound": "CS(=N)(=O)CCC(N)P(=O)(O)O (centres undefined)", "target-under-test": "DU-145", "GI50": "> 100 µM (inactive)"}
{"compound": "CC(=O)C1(O)CCC2(O)C3(O)CC=C4CC(O)CCC4(C)C3CC(OC(=O)c3ccc(O)cc3)C12C (centres undefined)", "target-under-test": "DU-145", "GI50": "> 100 µM (inactive)"}
{"compound": "C=C(C)C(=O)CC[C@@H](C)[C@H]1[C@@H](OC2OC(CO)C(O)C(O)C2O)C[C@@]2(C)[C@@H]3C[C@H](O)C4C(C)(C)[C@@H](OC5OC(CO)C(O)C(O)C5O)CC[C@@]45C[C@@]35CC[C@]12C (some centres undefined)", "target-under-test": "DU-145", "GI50": "> 100 µM (inactive)"}

Values were extracted from ChEMBL document CHEMBL1201862.
